Counter-ions that a name gives are not always drawn.
assay_endpoint: melting point

The cases that follow already have their melting point on record.
| molecule | melting point |
| --- | --- |
| O=C1Nc2ccccc2CN1c1nc(-c2ccc(Cl)c(Cl)c2)cs1 | 295 to 299 °C |
| COc1ccc(-c2csc(N3Cc4ccccc4NC3=O)n2)c(OC)c1 | 283 to 288 °C |
| Cc1ccc(Oc2ccc3c(c2)CN(c2nc(-c4ccncc4)cs2)C(=O)N3)c(C)c1 | 254 to 258 °C |
| CCc1cc(-c2nc(N3Cc4ccccc4NC3=O)cs2)ccn1 | 239 to 240 °C |
| CN1CCN(c2ccc3c(c2)CN(c2nc(-c4ccncc4)cs2)C(=O)N3)CC1 | 301 to 304 °C |
| O=C1Nc2cccc(CN3CCOCC3)c2CN1c1csc(-c2ccncc2)n1 (as salt: HCl) | 261 to 263 °C |
| O=C1Nc2cc(-c3cccc(OCCN4CCCCC4)c3)ccc2CN1c1csc(-c2ccncc2)n1 | 206 to 208 °C |
| O=C1Nc2cc(F)c(N3CCCCC3)cc2CN1c1csc(-c2ccncc2)n1 | 312 to 314 °C |
| COc1ccc(-c2csc(N3Cc4ccccc4NC3=O)n2)cc1 | 275 to 278 °C |
| O=C1Nc2cccc(F)c2CN1c1nc(-c2ccncc2)cs1 | > 300 °C |

For every listed record, write down its melting point.
1. O=C1Nc2cccc(CN3CCCCCC3)c2CN1c1csc(-c2ccncc2)n1
2. O=C1Nc2cc(F)ccc2CN1c1csc(-c2ccncc2)n1
3. O=C1Nc2cc(CN3CCOCC3)ccc2CN1c1csc(-c2ccncc2)n1

Reply text:
1: 202 to 204 °C; 2: 285 to 286 °C; 3: 249 to 250 °C

Please state, for each entry, its recorded melting point.
1. O=C1Nc2cccc(N3CCOCC3)c2CN1c1nc(-c2ccncc2)ns1
2. CN(C)CCN(C)c1ccc2c(c1)CN(c1nc(-c3ccncc3)cs1)C(=O)N2
3. O=C1Nc2cc(-c3cccc(O)c3)ccc2CN1c1csc(-c2ccncc2)n1
4. Cc1ccc2c(c1)CN(c1csc(-c3ccncc3)n1)C(=O)N2
5. O=C1Nc2ccccc2CN1c1nc(-c2ccncc2)ns1
6. O=C1Nc2cccc(Cl)c2CN1c1nc(-c2ccncc2)cs1
7. O=C1Nc2ccccc2CN1c1nc(-c2ccc(O)cc2)cs1
8. O=C1Nc2ccc(F)cc2CN1c1csc(-c2ccncc2)n1

Reply text:
> 300 °C
254 to 257 °C
320 to 322 °C
259 to 261 °C
> 290 °C
> 300 °C
288 to 291 °C
290 to 291 °C

---

Please provide measured melting point for the entries that follow.

# example entries with known answers
| compound | melting point |
| --- | --- |
| O=C1Nc2ccc(N3CCCCC3)cc2CN1c1nc(-c2ccncc2)cs1 | > 272 °C |
| CN1CCC[C@H]1COc1ccc2c(c1)CN(c1nc(-c3ccncc3)ns1)C(=O)N2 | > 275 °C |
| O=C1Nc2ccccc2CN1c1ccc(-c2ccncc2)s1 | 301 to 305 °C |
| O=C1Nc2ccccc2CN1c1nc(-c2ccccn2)cs1 | > 275 °C |
| CN1CCC[C@H]1COc1cccc2c1CN(c1nc(-c3ccncc3)ns1)C(=O)N2 | > 250 °C |

For every listed record, write down its melting point.
1. COc1cccc(-c2cccc3c2CN(c2csc(-c4ccncc4)n2)C(=O)N3)c1
2. O=C1Nc2cccc(Cl)c2CN1c1csc(-c2ccncc2)n1
3. O=C1Nc2cc(C(F)(F)F)ccc2CN1c1nc(-c2ccncc2)ns1
4. O=C1Nc2ccccc2CN1c1nc(-c2ccncc2)cs1
5. COc1cccc(-c2ccc3c(c2)NC(=O)N(c2csc(-c4ccncc4)n2)C3)c1

Reply text:
["250 to 252 °C", "292 to 293 °C", "> 300 °C", "> 267 °C", "256 to 258 °C"]
